inhibition at 96 h, 10 µM for assorted molecules
# assay-summary: Cytotoxicity against human HEL299 cells assessed as inhibition of cell proliferation at 10 uM after 4 days by Vi-Cell cell viability analyzer based method relative to control
# Set-up: species or system HEL 299
Give just the number in %; leave the unit off.

input-smiles | inhibition at 96 h, 10 µM / %
O=c1[nH]cc(F)c(=O)[nH]1 | 64.6
CN(C)c1ncc(C#Cc2c(F)cccc2F)c2ccccc12 | 11.7

[Q] # input molecule: CNc1ncc(C#Cc2c(F)cccc2F)c2ccccc12 ; wanted: its inhibition at 96 h, 10 µM
[A] 9.5

* * *

# System: LS174T
# assay-summary: Antiproliferative activity against human LS174T cells assessed as inhibition of cell proliferation at 100 nM after 4 days by Vi-Cell cell viability analyzer based method relative to control
# Assay type: functional
# conditions: 96 h
inhibition at 0.1 µM for assorted molecules
Give just the number in %; leave the unit off.

The cases that follow already have their inhibition at 0.1 µM on record.
input-smiles | inhibition at 0.1 µM / %
Fc1ccc2ccnc(C#Cc3c(F)cccc3F)c2c1 | 0
Fc1ccc2cc(C#Cc3c(F)cccc3F)cnc2c1 | 14.8
Fc1cccc(F)c1C#Cc1cnc2c(F)cccc2c1 | 8.8
Fc1cccc(F)c1C#Cc1cnc(Cl)c2ccccc12 | 0.8
CN(C)c1ccc(C#Cc2c(F)cccc2F)nc1 | 15.1
Fc1cccc(F)c1C#Cc1cnc2ccccc2c1 | 0

[Q] Record lookup: for LS174T, what inhibition at 0.1 µM belongs to Nc1ncc(C#Cc2c(F)cccc2F)c2ccccc12 ?
[A] 35.5

[Q] Record lookup: for LS174T, what inhibition at 0.1 µM belongs to Fc1cccc(F)c1C#Cc1cnc2ccccc2c1Cl ?
[A] 0

* * *

# assay-summary: Cytotoxicity against human BEAS2B cells assessed as inhibition of cell proliferation at 10 uM after 4 days by Vi-Cell cell viability analyzer based method relative to control
# Set-up: species or system BEAS-2B
readout-type: inhibition at 96 h, 10 µM

input-smiles | inhibition at 96 h, 10 µM
CN(C)c1ncc(C#Cc2c(F)cccc2F)c2ccccc12 | 16.2%
O=c1[nH]cc(F)c(=O)[nH]1 | 57.5%

[Q] # input molecule: CNc1ncc(C#Cc2c(F)cccc2F)c2ccccc12 ; wanted: its inhibition at 96 h, 10 µM
[A] 19.2%

* * *

# Tested on: LS174T
# assay-summary: Antiproliferative activity against human LS174T cells assessed as inhibition of cell proliferation at 100 nM after 4 days by Vi-Cell cell viability analyzer based method relative to control
# Format: functional
# conditions: 96 h
inhibition at 0.1 µM for assorted molecules
Give just the number in %; leave the unit off.

The cases that follow already have their inhibition at 0.1 µM on record.
input-smiles | units-of-measure | result-number
CNc1ncc(C#Cc2c(F)cccc2F)c2ccccc12 | % | 99.5
CN(C)c1ncc(C#Cc2c(F)cccc2F)c2ncccc12 | % | 59.5
Fc1cccc(F)c1C#Cc1ccc(-n2cccc2)cc1 | % | 11
Fc1cccc(F)c1C#Cc1ccc2cccnc2c1 | % | 2.9
Cn1ccc2cc(C#Cc3c(F)cccc3F)ccc21 | % | 3

[Q] Record lookup: for LS174T, what inhibition at 0.1 µM belongs to Fc1cccc(F)c1C#Cc1ccc(-n2cccc2)nc1 ?
[A] 0

[Q] Record lookup: for LS174T, what inhibition at 0.1 µM belongs to CN(C)c1ncc(C#Cc2c(F)cccc2F)c2ccccc12 ?
[A] 81.7

[Q] Record lookup: for LS174T, what inhibition at 0.1 µM belongs to CN(C)c1ccc(C#Cc2c(F)cccc2F)cn1 ?
[A] 0

[Q] Record lookup: for LS174T, what inhibition at 0.1 µM belongs to Fc1cccc(F)c1C#Cc1ccc2ccccc2n1 ?
[A] 6.1

[Q] Record lookup: for LS174T, what inhibition at 0.1 µM belongs to Cn1ncc2ccc(C#Cc3c(F)cccc3F)cc21 ?
[A] 0

[Q] Record lookup: for LS174T, what inhibition at 0.1 µM belongs to Nc1ccnc2ccc(C#Cc3c(F)cccc3F)cc12 ?
[A] 0

[Q] Record lookup: for LS174T, what inhibition at 0.1 µM belongs to Cn1ncc2cc(C#Cc3c(F)cccc3F)ccc21 ?
[A] 0

Attribution: ChEMBL document CHEMBL4261567
